experimentDescription: in vivo
testConditions: male, beagle, dog, po, 10 mg/kg, T1/2
metricName: half-life (h)
Answer format: numeric, h implied, no suffix.

Q) # half-life lookup, item COc1ccc2c(c1OCc1ccccc1)C[C@@H](C(=O)O)N(C(=O)C(c1ccccc1)c1ccccc1)C2 [Compound 1]
A) 2.18

Source of measurements: patent US8614227B2
